Target: fMet-Leu-Phe receptor (Homo sapiens, UniProt P21462)
Sequence (P21462 whole entry): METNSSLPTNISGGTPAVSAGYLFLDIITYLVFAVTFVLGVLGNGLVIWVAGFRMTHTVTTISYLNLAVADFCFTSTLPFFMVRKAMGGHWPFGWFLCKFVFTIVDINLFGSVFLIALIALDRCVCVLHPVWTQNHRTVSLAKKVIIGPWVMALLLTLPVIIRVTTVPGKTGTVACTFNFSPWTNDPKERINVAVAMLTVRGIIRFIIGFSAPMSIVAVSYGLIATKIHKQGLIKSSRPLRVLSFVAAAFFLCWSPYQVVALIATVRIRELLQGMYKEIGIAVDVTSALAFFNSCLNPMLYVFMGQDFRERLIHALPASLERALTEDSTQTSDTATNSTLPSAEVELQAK
Assay: Biased agonist activity at human FPR1 expressed in FlpIn-CHO cells assessed as intracellular calcium mobilization by Fluo-4-AM dye based fluorescence assay
Measurement kind: pEC50
// pEC50 here means minus log10 of the molar concentration (mol/L)

// pEC50 lookup, compound = CCCCC(C(=O)Nc1ccc(Cl)cc1)n1nc(C)cc(Cc2ccccc2OC)c1=O (stereo unspecified) , result: 6.05

Values were extracted from BindingDB's records for doi:10.1021/acs.jmedchem.8b01912.
